Sourced from patent US20160045505A1

Catalogue of EC50 readings, one per entry.
Test system: L. donovani HU3 strain in mouse peritoneal macrophages
assay-remarks: Assay for proliferation of Leishmania parasites in infected mouse peritoneal macrophages (SybrGreen staining, high-content imaging, 5 days)
Assay type: cell-based, Leishmania donovani
test-parameters: Leishmania donovani, Peritoneal macrophage, L. donovani in mouse peritoneal macrophages, inhibition of proliferation; read-out: L. donovani Macrophage EC50
measured-parameter: EC50 (µM)

> print(dat)
                                    molecule  unit.abbrev  relational.operator  readout.number
 1  CO[C@@H]1CCN(C(=O)Nc2ccc(Cl)c(-c3cn4cc(NC(=O)OC(C)C)cnc4n3)c2)C1 [Compound 265]           µM                    =            4.26
 2  CC(C)OC(=O)Nc1cnc2nc(-c3cc(NC(=O)N4CCCC4(C)C)ccc3Cl)cn2c1 [Compound 282]           µM                    =            10.1
 3  COCCOCC(=O)Nc1cnc2nc(-c3cc(NC(=O)N4CCCC4)ccc3F)cn2c1 [Compound 137]           µM                    =            24.8
 4  CC(C)OC(=O)Nc1cnc2nc(-c3cc(NC(=O)c4cnco4)ccc3F)cn2c1 [Compound 78]           µM                    =            6.41
 5  Cc1n[nH]c(C(=O)Nc2cnc3nc(-c4cc(NC(=O)c5oc(C)nc5C)ccc4F)cn3c2)n1 [Compound 171]           µM                    >              50
 6  O=C(Nc1ccc(F)c(-c2cn3cc(Cl)cnc3n2)c1)N1CC(F)C1 [Compound 238]           µM                    =           0.788
 7  Cc1nc(C)c(C(=O)Nc2ccc(F)c(-c3cn4cc(C(F)F)cnc4n3)c2)o1 [Compound 208]           µM                    =           0.445
 8  CC(C)OC(=O)Nc1cnc2nc(-c3cc(NC(=O)c4cnc(C5CC5)o4)ccc3F)cn2c1 [Compound 108]           µM                    =            2.41
 9  Cc1nc(C)c(C(=O)Nc2ccc(F)c(-c3cn4cc(NC(=O)C5CCOCC5)cnc4n3)c2)o1 [Compound 158]           µM                    >              50
10  CC(=O)OC(C)C(=O)Nc1ccc(Cl)c(-c2cn3cc(NC(=O)OC(C)C)cnc3n2)c1 (stereo not shown) [Compound 56]           µM                    >              50
11  CC(C)OC(=O)Nc1ccc(F)c(-c2cn3cc(C4=CCOCC4)cnc3n2)c1 [Compound 332]           µM                    =           0.592
12  O=C(Nc1ccc(F)c(-c2cn3cc(C4=CCOCC4)cnc3n2)c1)N1CCC1 [Compound 322]           µM                    =           0.157
13  CC(C)OC(=O)Nc1cnc2nc(-c3cc(NC(=O)N4CCNC4=O)ccc3Cl)cn2c1 [Compound 217]           µM                    >              50
14  Cc1nc(C)c(C(=O)Nc2ccc(F)c(-c3cn4cc(NC(=O)C5CCOC(C)(C)C5)cnc4n3)c2)o1 (stereo not shown) [Compound 159]           µM                    =            10.1
15  Cc1nc(C)c(C(=O)Nc2ccc(F)c(-c3cn4cc(-c5ccc(CCO)cn5)cnc4n3)c2)o1 [Compound 350]           µM                    =           0.128
16  O=C1CC(C(=O)Nc2cnc3nc(-c4cc(NC(=O)N5CCCC5)ccc4F)cn3c2)C1 [Compound 141]           µM                    =            8.28

---

System: Trypanosoma brucei Lister 427 strain, bloodstream form
assay-remarks: Assay for proliferation of kinetoplastid parasite Trypanosoma brucei (Cell Titer Glo, 48 hours)
Assay type: cell-based
test-parameters: Trypanosoma brucei, read-out: T. brucei EC50
The following compounds are shown together with reported EC50 values.
measured-parameter: EC50 (µM)

> print(dat)
                                test.smiles                               target.desc  measured.parameter  unit.abbrev  readout.number
1  CC(C)OC(=O)Nc1ccc(F)c(-c2cn3cc(C(F)(F)F)cnc3n2)c1  Trypanosoma brucei Lister 427 strain, bloodstream form                EC50           µM           0.307
2  Cc1ccc(C(=O)Nc2ccc(F)c(-c3cn4cc(NC(=O)OC(C)C)cnc4n3)c2)s1  Trypanosoma brucei Lister 427 strain, bloodstream form                EC50           µM            1.18
3  CC(C)CN(C)C(=O)Nc1ccc(Cl)c(-c2cn3cc(NC(=O)OC(C)C)cnc3n2)c1  Trypanosoma brucei Lister 427 strain, bloodstream form                EC50           µM            4.07
4  O=C(Nc1ccc(F)c(-c2cn3cc(-c4ccccn4)cnc3n2)c1)N1CC(F)(F)C1  Trypanosoma brucei Lister 427 strain, bloodstream form                EC50           µM           0.012

---

Test system: Trypanosoma cruzi amastigotes (Tulahuen strain expressing Lac-Z) cultured in 3T3 fibroblast cells
assay-remarks: microbe, parasite or virus in culture
Format: cell-based
test-parameters: Trypanosoma cruzi, TULAHUEN, Fibroblast, T. cruzi amastigotes in 3T3 fibroblast cells; read-out: T cruzi EC50
pEC50: −log10 of the molar value.
measured-parameter: pEC50

> print(dat)
                                   compound  measured.parameter  relational.operator  readout.number
1  Cc1nc(C)c(C(=O)Nc2ccc(F)c(-c3cn4cc(N5CCCC5)cnc4n3)c2)o1 [Compound 493]               pEC50                    =            7.51
2  Cc1nnc(C(=O)Nc2ccc(Cl)c(-c3cn4cc(NC(=O)OC(C)C)cnc4n3)c2)o1 [Compound 527]               pEC50                    <            4.70
3  COc1cccnc1-c1cnc2nc(-c3cc(NC(=O)c4oc(C)nc4C)ccc3F)cn2c1 [Compound 459]               pEC50                    =            6.92
4  Cc1nc(C)c(C(=O)Nc2ccc(F)c(-c3cn4cc(-c5ccccc5N)cnc4n3)c2)o1 [Compound 372]               pEC50                    =            7.02
5  Cc1nc(C)c(C(=O)N(C)c2ccc(F)c(-c3cn4cc(N(C)C(=O)OC(C)C)cnc4n3)c2)o1 [Compound 553]               pEC50                    =            5.51
6  CC(C)OC(=O)Nc1cnc2nc(-c3cc(Nc4cccnc4)ccc3F)cn2c1 [Compound 486]               pEC50                    =            5.84
7  Cc1nc(C)c(C(=O)Nc2ccc(F)c(-c3cn4cc(C5=CCCN(C)C5)cnc4n3)c2)o1 [Compound 375]               pEC50                    =            6.52
8  CC(=O)c1ccc(-c2cnc3nc(-c4cc(NC(=O)c5oc(C)nc5C)ccc4F)cn3c2)cn1 [Compound 437]               pEC50                    =            6.17

---

Test system: Trypanosoma brucei Lister 427 strain, bloodstream form
assay-remarks: Assay for proliferation of kinetoplastid parasite Trypanosoma brucei (Cell Titer Glo, 48 hours)
Format: cell-based
test-parameters: Trypanosoma brucei, T. brucei Lister 427 bloodstream form; read-out: T. brucei EC50
Could you mark each record satisfied if its EC50 falls strictly under 1 µM, and not satisfied if it equals or exceeds it?

> print(dat)
                                    compound          class
 1       O=CNc1ccc(F)c(-c2cn3cc(Br)cnc3n2)c1  not satisfied
 2  C=C(C)c1cnc2nc(-c3cc(NC(=O)c4oc(C)nc4C)ccc3F)cn2c1      satisfied
 3  Cc1nc(C)c(C(=O)Nc2ccc(F)c(-c3cn4cc(C#CCCN5CCCC(O)C5)cnc4n3)c2)o1 (centres unmarked)  not satisfied
 4  O=C(Nc1ccc(F)c(-c2cn3cc(F)cnc3n2)c1)N1CCCC1      satisfied
 5  CN1CCN(C(=O)Nc2ccc(F)c(-c3cn4cc(Br)cnc4n3)c2)CC1  not satisfied
 6  CN(C)C(=O)Nc1ccc(F)c(-c2cn3cc(N(C)C)cnc3n2)c1      satisfied
 7  Cc1nc(C)c(C(=O)Nc2ccc(F)c(-c3cn4cc(-c5cc(F)ccn5)cnc4n3)c2)o1      satisfied
 8  Cc1nc(C)c(C(=O)Nc2ccc(F)c(-c3cn4cc(-c5ccc(N6CCOCC6)cc5)cnc4n3)c2)o1      satisfied
 9  CNc1ccc(-c2cnc3nc(-c4cc(NC(=O)c5oc(C)nc5C)ccc4F)cn3c2)nc1      satisfied
10     CC(=O)Nc1ccc(F)c(-c2cn3cc(N)cnc3n2)c1  not satisfied
11  CC(C)Nc1cnc2nc(-c3cc(NC(=O)N4CCC4)ccc3F)cn2c1      satisfied
12  Cc1nc(C)c(C(=O)Nc2ccc(F)c(-c3cn4cc(C5CCN(CCO)CC5)cnc4n3)c2)o1  not satisfied
13  Cc1nc(C)c(C(=O)Nc2ccc(F)c(-c3cn4cc(NC5=NCC(C)(C)O5)cnc4n3)c2)o1  not satisfied
14  Cc1nc(C)c(C(=O)Nc2ccc(F)c(-c3cn4cc(NC5=N[C@@H]6CCC[C@H]6O5)cnc4n3)c2)o1      satisfied
15  CC(C)CNc1cnc2nc(-c3cc(NC(=O)N4CCCC4)ccc3F)cn2c1      satisfied
16  Cc1nc(C)c(C(=O)Nc2ccc(F)c(-c3cn4cc(-c5cn[nH]c5)cnc4n3)c2)o1  not satisfied
17  Cc1nc(C)c(C(=O)Nc2ccc(F)c(-c3cn4cc(NC5=NCC(C(F)(F)F)O5)cnc4n3)c2)o1 (centres unmarked)  not satisfied
